test system: Fibroblast; experiment: Multiplex assay against human fibroblast; assay type: toxicity, cell-based; conditions: 12 h, 1 µM, compound concentration 1 uM, replicate 1
Exercise: state measured Population Normal (%) for each of the compounds provided.
Give bare numbers, in %.

# example entries with known answers
CC(C)(C)NC[C@H](O)COc1nsnc1N1CCOCC1: 85
COc1ccc(-c2ccc3ncc4c(c3c2)n(-c2ccc(N3CCNCC3)c(C(F)(F)F)c2)c(=O)n4C)cn1.O=C(O)/C=C\C(=O)O: 85
Cl.O=C(O)c1cc(-c2ccc(C3CCNCC3)cc2)c2ccc(-c3ccc(C(F)(F)F)cc3)cc2c1: 79
CC1=C(C(=O)Nc2cc3cn[nH]c3cc2F)C(c2ccc(C(F)(F)F)cc2)CC(=O)N1 (stereo unspecified): 87
C=CC(=O)Nc1cccc(Oc2nc(Nc3ccc(N4CCN(C)CC4)cc3OC)ncc2Cl)c1: 75

Here is the next item to consider.
Can you look up Population Normal (%) on Fibroblast for Cc1c[nH]c2nccc(Oc3c(F)cc(Nc4cc(Cl)nc(N)n4)cc3F)c12 ?
87

----------
Exercise: state measured Total Cell Count for each of the molecules provided.
tested on: Fibroblast; assay: Multiplex assay against human fibroblast; format: toxicity, cell-based; settings: 12 h, 10 µM, compound concentration 10 uM, replicate 2
Numbers only.

# example entries with known answers
CCCSc1nc(N[C@@H]2C[C@H]2c2ccc(F)c(F)c2)c2nnn([C@@H]3C[C@H](OCCO)[C@@H](O)[C@H]3O)c2n1: 67
COc1ccc(-c2ccc3ncc4c(c3c2)n(-c2ccc(N3CCNCC3)c(C(F)(F)F)c2)c(=O)n4C)cn1.O=C(O)/C=C\C(=O)O: 675
Cl.O=C(O)c1cc(-c2ccc(C3CCNCC3)cc2)c2ccc(-c3ccc(C(F)(F)F)cc3)cc2c1: 38
O=c1cc(N2CCOCC2)oc2c(-c3cccc4c3sc3ccccc34)cccc12: 70
CC(C)CC(=O)Nc1[nH]nc2c1CN(C(=O)C1CCN(C)CC1)C2(C)C: 62
COc1cc2ncn(-c3cc(OCc4ccccc4C(F)(F)F)c(C(N)=O)s3)c2cc1OC [GW843682X]: 68

Hey, can you go through the list below and give me Total Cell Count for every item?
1. CCc1ccc(OCc2ccccc2C(=O)Nc2ccc3nc(C)cc(N)c3c2)cc1.Cl
2. COc1cc(Nc2nccc(-c3cnn4nc(OC)ccc34)n2)cc(C(F)(F)F)c1
3. CN1CCN(Cc2ccc(Nc3ncc(Cl)c(Nc4ccccc4S(=O)(=O)N(C)C)n3)cc2)CC1
4. CC(C)OC(=O)N1CCC(Oc2ncnc3c2cnn3-c2ccc(S(C)(=O)=O)cc2F)CC1
5. CCc1nn(CCCN2CCN(c3cccc(Cl)c3)CC2)c(=O)n1CCOc1ccccc1.Cl [NEFAZODONE HYDROCHLORIDE]

50
82
91
72
61

----------
Exercise: state measured Population Tubulin-Different-Phenotype (%) for each of the compounds provided.
system: Fibroblast; experiment: Multiplex assay against human fibroblast; type: toxicity, cell-based; details: 24 h, 10 µM, compound concentration 10 uM, replicate 2
The reply should read as a number followed by its unit.

# example entries with known answers
Cc1cccc(CN2CCN(C(c3ccccc3)c3ccc(Cl)cc3)CC2)c1.Cl.Cl (stereo unspecified): 45%
CC(C)(C)NC[C@H](O)COc1nsnc1N1CCOCC1: 4%
CNC(=O)Nc1ccc2c(c1)[C@@]1(CC2)OC(=O)N(CC(=O)N(Cc2ccc(F)cc2)[C@@H](C)C(F)(F)F)C1=O: 10%
CC(C)c1noc(N2CCC(COc3ccc(-c4ccc(S(C)(=O)=O)cc4)nc3)CC2)n1: 7%
COc1cc(Nc2nccc(-c3cnn4nc(OC)ccc34)n2)cc(C(F)(F)F)c1: 11%

Here is the next item to consider.
Find the recorded Population Tubulin-Different-Phenotype (%) belonging to Cc1cc(NC(=O)c2cccc(S(F)(F)(F)(F)F)c2)cc(-n2ccn3nc(-c4cccnc4)cc23)c1 and report it.
41%

----------
test system: U2OS; test: Multiplex assay against U2OS; assay type: toxicity, cell-based; details: human, 48 h, 10 µM, compound concentration 10 uM, replicate 1
parameter.measured: Population Fragmented Nuclei (%)
The reply should read as a number followed by its unit.

# example entries with known answers
Cc1cccc(CN2CCN(C(c3ccccc3)c3ccc(Cl)cc3)CC2)c1.Cl.Cl (stereo not given): 8%
CCCSc1nc(N[C@@H]2C[C@H]2c2ccc(F)c(F)c2)c2nnn([C@@H]3C[C@H](OCCO)[C@@H](O)[C@H]3O)c2n1: 25%
C[C@]12CC[C@@H]3c4ccc(O)cc4CC[C@H]3[C@@H]1CC[C@@H]2O: 8%
O=c1cc(N2CCOCC2)oc2c(-c3cccc4c3sc3ccccc34)cccc12: 30%
CCOC(=O)Nc1cc(-c2ccc(C)c(NS(C)(=O)=O)c2)nn2c(C)nnc12: 5%

Hey, can you go through the list below and give me Population Fragmented Nuclei (%) for every item?
1. COc1cc2ncn(-c3cc(OCc4ccccc4C(F)(F)F)c(C(N)=O)s3)c2cc1OC [GW843682X]
2. O=C(c1cc2c(cc1F)OC(c1ccc(F)cc1)(c1ccc(Cl)cc1Cl)O2)N1CCOCC1 (stereo not given)
3. CN1CCN(Cc2ccc(Nc3ncc(Cl)c(Nc4ccccc4S(=O)(=O)N(C)C)n3)cc2)CC1
4. CC1=C(C(=O)Nc2cc3cn[nH]c3cc2F)C(c2ccc(C(F)(F)F)cc2)CC(=O)N1 (stereo not given)
5. COC(=O)C1=C(C)NC(C)=C(C(=O)OCCCN2CCC(c3ccccc3)(c3ccccc3)CC2)[C@H]1c1cccc([N+](=O)[O-])c1
6. Cl.O=C(O)c1cc(-c2ccc(C3CCNCC3)cc2)c2ccc(-c3ccc(C(F)(F)F)cc3)cc2c1

["17%", "20%", "40%", "7%", "69%", "12%"]

----------
Exercise: state measured Population Apoptotic (%) for each of the compounds provided.
test system: HEK-293T; assay: Multiplex assay against HEK293T; type: toxicity, cell-based; settings: human, 12 h, 1 µM, compound concentration 1 uM, replicate 2
Give bare numbers, in %.

CC1=C(C(=O)Nc2cc3cn[nH]c3cc2F)C(c2ccc(C(F)(F)F)cc2)CC(=O)N1 (stereo not given): 6

Hey, can you go through the list below and give me Population Apoptotic (%) for every item?
1. CC(C)OC(=O)N1CCC(Oc2ncnc3c2cnn3-c2ccc(S(C)(=O)=O)cc2F)CC1
2. Cc1cccc(CN2CCN(C(c3ccccc3)c3ccc(Cl)cc3)CC2)c1.Cl.Cl (stereo not given)
3. COc1ccc(-c2ccc3ncc4c(c3c2)n(-c2ccc(N3CCNCC3)c(C(F)(F)F)c2)c(=O)n4C)cn1.O=C(O)/C=C\C(=O)O [BGT-226]

1: 12; 2: 9; 3: 78

----------
system: HEK-293T; test: Multiplex assay against HEK293T; format: toxicity, cell-based; conditions: human, 24 h, 10 µM, compound concentration 10 uM, replicate 1
Exercise: state measured Population Pyknosed Nuclei (%) for each of the molecules provided.
One number for each entry, in %.

# example entries with known answers
CNC(=O)Nc1ccc2c(c1)[C@@]1(CC2)OC(=O)N(CC(=O)N(Cc2ccc(F)cc2)[C@@H](C)C(F)(F)F)C1=O: 9
O=c1[nH]c2ccccc2n1C1CCN(Cc2ccc(-c3[nH]c4cc5ncnc5cc4nc3-c3ccccc3)cc2)CC1: 31
CC(C)CC(=O)Nc1[nH]nc2c1CN(C(=O)C1CCN(C)CC1)C2(C)C: 15

Hey, can you go through the list below and give me Population Pyknosed Nuclei (%) for every item?
1. CC(C)c1noc(N2CCC(COc3ccc(-c4ccc(S(C)(=O)=O)cc4)nc3)CC2)n1
2. O=C(c1cc2c(cc1F)OC(c1ccc(F)cc1)(c1ccc(Cl)cc1Cl)O2)N1CCOCC1 (stereo not drawn)
3. O=c1cc(N2CCOCC2)oc2c(-c3cccc4c3sc3ccccc34)cccc12
4. Cc1ccc(C)c(Oc2ccncc2C(=O)N2CCN(C3CC3)c3ccccc32)c1

72
68
71
53

Find the recorded Population Pyknosed Nuclei (%) belonging to Cc1c[nH]c2nccc(Oc3c(F)cc(Nc4cc(Cl)nc(N)n4)cc3F)c12 and report it.
46

----------
system: HEK-293T; test: Multiplex assay against HEK293T; assay type: toxicity, cell-based; conditions: human, 12 h, 1 µM, compound concentration 1 uM, replicate 1
Quick rule for you: Total Cell Count at 300 or higher means true (1), lower means false (0).

Example results:
COC(=O)C1=C(C)NC(C)=C(C(=O)OCCCN2CCC(c3ccccc3)(c3ccccc3)CC2)[C@H]1c1cccc([N+](=O)[O-])c1 [NIGULDIPINE]: false (0)
Cc1ccc(C)c(Oc2ccncc2C(=O)N2CCN(C3CC3)c3ccccc32)c1: true (1)

Attention now turns to another entry.
Assess whether reported Total Cell Count for Cc1ccc2c(c1)c1c(n2CCc2ccc(C)nc2)CCN(C)C1 [LATREPIRDINE] sits at 300 or higher.
false (0)
